Origin of values: ChEMBL document CHEMBL1770111

- System: Plasmodium falciparum
- method: Antiplasmodial activity against chloroquine-resistant Plasmodium falciparum W2 by parasite lactate dehydrogenase assay
- Assay type: functional, organism-based
# label = MET if IC50 < 30 µM else NOT MET

[[record]]
line_notation = "CN(Cc1ccc(Cl)cc1)Cc1ccc(CN)cc1"
answer_label = "NOT MET"

[[record]]
line_notation = "CN(Cc1ccccc1)Cc1ccccc1CNC=O"
answer_label = "MET"

[[record]]
line_notation = "CN(Cc1ccc(Cl)cc1)Cc1ccccc1CN"
answer_label = "MET"

[[record]]
line_notation = "CN(Cc1ccc(Cl)cc1)Cc1ccc(CNC=O)cc1"
answer_label = "MET"

[[record]]
line_notation = "COc1ccc(CN(C)Cc2cccc(CNC=O)c2)cc1"
answer_label = "NOT MET"

[[record]]
line_notation = "COc1ccc(CN(C)Cc2ccccc2CNC=O)cc1"
answer_label = "MET"

[[record]]
line_notation = "CN(Cc1ccccc1)Cc1cccc(CNC=O)c1"
answer_label = "MET"

[[record]]
line_notation = "CN(Cc1ccccc1)Cc1ccccc1CN"
answer_label = "MET"

[[record]]
line_notation = "COc1ccc(CN(C)Cc2cccc(CN)c2)cc1"
answer_label = "MET"

[[record]]
line_notation = "COc1ccc(CN(C)Cc2ccc(CN)cc2)cc1"
answer_label = "NOT MET"

[[record]]
line_notation = "CN(Cc1ccc(CN)cc1)Cc1ccc(N(C)C)cc1"
answer_label = "MET"

[[record]]
line_notation = "COc1ccc(CN(C)Cc2ccccc2CN)cc1"
answer_label = "NOT MET"

[[record]]
line_notation = "CN(Cc1ccc(N(C)C)cc1)Cc1ccccc1CN"
answer_label = "NOT MET"

[[record]]
line_notation = "CN(Cc1ccccc1)Cc1ccc(CNC=O)cc1"
answer_label = "NOT MET"

[[record]]
line_notation = "CN(Cc1ccc(Cl)cc1)Cc1cccc(CNC=O)c1"
answer_label = "MET"

[[record]]
line_notation = "CN(Cc1ccc(N(C)C)cc1)Cc1ccccc1CNC=O"
answer_label = "NOT MET"

[[record]]
line_notation = "COc1ccc(CN(C)Cc2ccc(CNC=O)cc2)cc1"
answer_label = "NOT MET"

[[record]]
line_notation = "CN(Cc1ccc(N(C)C)cc1)Cc1cccc(CNC=O)c1"
answer_label = "MET"

[[record]]
line_notation = "CN(Cc1ccccc1)Cc1cccc(CN)c1"
answer_label = "MET"

[[record]]
line_notation = "CN(Cc1ccc(Cl)cc1)Cc1ccccc1CNC=O"
answer_label = "NOT MET"

[[record]]
line_notation = "CN(Cc1ccc(CNC=O)cc1)Cc1ccc(N(C)C)cc1"
answer_label = "NOT MET"

[[record]]
line_notation = "CN(Cc1ccccc1)Cc1ccc(CN)cc1"
answer_label = "MET"


###

- Test system: Plasmodium falciparum
- method: Resistance modification index, ratio of IC50 for chloroquine in presence of compound to IC50 for chloroquine alone for chloroquine-resistant Plasmodium falciparum W2
- Assay type: functional
parameter_measured: Ratio IC50

[[record]]
molecule = "CN(Cc1ccc(Cl)cc1)Cc1cccc(CN)c1"
parameter_measured = "Ratio IC50"
endpoint_result = 0.31

[[record]]
molecule = "CN(Cc1ccccc1)Cc1ccccc1CN"
parameter_measured = "Ratio IC50"
endpoint_result = 0.03

[[record]]
molecule = "COc1ccc(CN(C)Cc2ccccc2CN)cc1"
parameter_measured = "Ratio IC50"
endpoint_result = 0.35

[[record]]
molecule = "CN(Cc1ccc(Cl)cc1)Cc1ccc(CN)cc1"
parameter_measured = "Ratio IC50"
endpoint_result = 0.25

[[record]]
molecule = "CN(Cc1ccccc1)Cc1ccc(CN)cc1"
parameter_measured = "Ratio IC50"
endpoint_result = 0.24

[[record]]
molecule = "COc1ccc(CN(C)Cc2ccc(CN)cc2)cc1"
parameter_measured = "Ratio IC50"
endpoint_result = 0.33

[[record]]
molecule = "CN(Cc1ccccc1)Cc1cccc(CN)c1"
parameter_measured = "Ratio IC50"
endpoint_result = 0.08

[[record]]
molecule = "CN(Cc1ccc(N(C)C)cc1)Cc1ccccc1CNC=O"
parameter_measured = "Ratio IC50"
endpoint_result = 1

[[record]]
molecule = "COc1ccc(CN(C)Cc2cccc(CN)c2)cc1"
parameter_measured = "Ratio IC50"
endpoint_result = 0.25

[[record]]
molecule = "COc1ccc(CN(C)Cc2ccccc2CNC=O)cc1"
parameter_measured = "Ratio IC50"
endpoint_result = 1.22

[[record]]
molecule = "CN(Cc1ccc(N(C)C)cc1)Cc1ccccc1CN"
parameter_measured = "Ratio IC50"
endpoint_result = 0.36

[[record]]
molecule = "CN(Cc1ccc(Cl)cc1)Cc1ccccc1CNC=O"
parameter_measured = "Ratio IC50"
endpoint_result = 1.07

[[record]]
molecule = "CN(Cc1ccccc1)Cc1cccc(CNC=O)c1"
parameter_measured = "Ratio IC50"
endpoint_result = 0.84

[[record]]
molecule = "CN(Cc1ccc(Cl)cc1)Cc1ccccc1CN"
parameter_measured = "Ratio IC50"
endpoint_result = 0.096

[[record]]
molecule = "CN(Cc1ccc(Cl)cc1)Cc1ccc(CNC=O)cc1"
parameter_measured = "Ratio IC50"
endpoint_result = 0.9

[[record]]
molecule = "COc1ccc(CN(C)Cc2cccc(CNC=O)c2)cc1"
parameter_measured = "Ratio IC50"
endpoint_result = 1.19

[[record]]
molecule = "CN(Cc1ccccc1)Cc1ccccc1CNC=O"
parameter_measured = "Ratio IC50"
endpoint_result = 0.75

[[record]]
molecule = "COc1ccc(CCN(C)CCCC(C#N)(c2ccc(OC)c(OC)c2)C(C)C)cc1OC (centres undefined)"
parameter_measured = "Ratio IC50"
endpoint_result = 0.26

[[record]]
molecule = "CN(Cc1ccc(N(C)C)cc1)Cc1cccc(CN)c1"
parameter_measured = "Ratio IC50"
endpoint_result = 0.24

[[record]]
molecule = "CN(Cc1ccc(N(C)C)cc1)Cc1cccc(CNC=O)c1"
parameter_measured = "Ratio IC50"
endpoint_result = 0.62

[[record]]
molecule = "COc1ccc(CN(C)Cc2ccc(CNC=O)cc2)cc1"
parameter_measured = "Ratio IC50"
endpoint_result = 1.22

[[record]]
molecule = "CN(Cc1ccccc1)Cc1ccc(CNC=O)cc1"
parameter_measured = "Ratio IC50"
endpoint_result = 1.13

[[record]]
molecule = "CN(Cc1ccc(CNC=O)cc1)Cc1ccc(N(C)C)cc1"
parameter_measured = "Ratio IC50"
endpoint_result = 1.36

[[record]]
molecule = "CN(Cc1ccc(CN)cc1)Cc1ccc(N(C)C)cc1"
parameter_measured = "Ratio IC50"
endpoint_result = 0.21


###

- Test system: Plasmodium falciparum
- method: Inhibition of chloroquine-resistant Plasmodium falciparum […] CRT expressed in Xenopus laevis oocytes assessed as [3H]-chloroquine uptake after 1 to 2 hrs
- settings: Oocyte, read-out: IC50
pIC50: −log10 of the molar value.
parameter_measured: pIC50

[[record]]
line_notation = "CN(Cc1ccc(Cl)cc1)Cc1ccc(CN)cc1"
endpoint_result = 3.85

[[record]]
line_notation = "CN(Cc1ccccc1)Cc1ccccc1CN"
endpoint_result = 4.62

[[record]]
line_notation = "CN(Cc1ccc(Cl)cc1)Cc1cccc(CN)c1"
endpoint_result = 4.00

[[record]]
line_notation = "CN(Cc1ccc(CNC=O)cc1)Cc1ccc(N(C)C)cc1"
endpoint_result = 3.18


###

- Tested on: Plasmodium falciparum
- method: Resistance modification index, ratio of compound IC10 to chloroquine IC50 in presence of IC10 compound for chloroquine-resistant Plasmodium falciparum W2
- Format: functional
parameter_measured: Ratio IC50

[[record]]
line_notation = "COc1ccc(CN(C)Cc2ccc(CNC=O)cc2)cc1"
study_system = "Plasmodium falciparum"
endpoint_result = 0.46

[[record]]
line_notation = "CN(Cc1ccccc1)Cc1cccc(CNC=O)c1"
study_system = "Plasmodium falciparum"
endpoint_result = 0.29

[[record]]
line_notation = "CN(Cc1ccc(CNC=O)cc1)Cc1ccc(N(C)C)cc1"
study_system = "Plasmodium falciparum"
endpoint_result = 0.46

[[record]]
line_notation = "COc1ccc(CN(C)Cc2ccccc2CNC=O)cc1"
study_system = "Plasmodium falciparum"
endpoint_result = 0.32

[[record]]
line_notation = "CN(Cc1ccc(Cl)cc1)Cc1ccc(CNC=O)cc1"
study_system = "Plasmodium falciparum"
endpoint_result = 0.46

[[record]]
line_notation = "CN(Cc1ccc(Cl)cc1)Cc1ccccc1CNC=O"
study_system = "Plasmodium falciparum"
endpoint_result = 0.34

[[record]]
line_notation = "COc1ccc(CN(C)Cc2cccc(CNC=O)c2)cc1"
study_system = "Plasmodium falciparum"
endpoint_result = 0.51

[[record]]
line_notation = "CN(Cc1ccccc1)Cc1ccc(CNC=O)cc1"
study_system = "Plasmodium falciparum"
endpoint_result = 0.43

[[record]]
line_notation = "CN(Cc1ccc(Cl)cc1)Cc1cccc(CNC=O)c1"
study_system = "Plasmodium falciparum"
endpoint_result = 0.51

[[record]]
line_notation = "CN(Cc1ccc(N(C)C)cc1)Cc1ccccc1CNC=O"
study_system = "Plasmodium falciparum"
endpoint_result = 0.49

[[record]]
line_notation = "CN(Cc1ccc(N(C)C)cc1)Cc1cccc(CNC=O)c1"
study_system = "Plasmodium falciparum"
endpoint_result = 1

[[record]]
line_notation = "CN(Cc1ccccc1)Cc1ccccc1CNC=O"
study_system = "Plasmodium falciparum"
endpoint_result = 0.44

